Test: Bioavailability by oral administration at a dose of 100 uM/kg in rat was determined
Assay type: ADME, organism-based
Conditions: in vivo, read-out: Bioavailabiility
experimental readout: bioavailability (%)
One number for each entry, in %.

Asked: Look up bioavailability for this molecule: CN(C[C@@H](CCN1CCC(c2ccccc2[S@+](C)[O-])CC1)c1ccc(Cl)c(Cl)c1)C(=O)c1cc(C#N)cc2ccccc12 (stereo in doubt)
Given back: 9

###

Test: Half life period at a dose of 1 uM/kg in dog was determined
Assay type: ADME, organism-based, Canis lupus familiaris
Conditions: in vivo
experimental readout: half-life
Field: value (include unit after the number)

Asked: Look up half-life for this compound: CN(C[C@@H](CCN1CCC(c2ccccc2[S@+](C)[O-])CC1)c1ccc(Cl)c(Cl)c1)C(=O)c1cc(C#N)cc2ccccc12 (stereo in doubt)
Given back: 228 min

###

Biological target: Neuromedin-K receptor (Homo sapiens)
Sequence (P29371 whole entry): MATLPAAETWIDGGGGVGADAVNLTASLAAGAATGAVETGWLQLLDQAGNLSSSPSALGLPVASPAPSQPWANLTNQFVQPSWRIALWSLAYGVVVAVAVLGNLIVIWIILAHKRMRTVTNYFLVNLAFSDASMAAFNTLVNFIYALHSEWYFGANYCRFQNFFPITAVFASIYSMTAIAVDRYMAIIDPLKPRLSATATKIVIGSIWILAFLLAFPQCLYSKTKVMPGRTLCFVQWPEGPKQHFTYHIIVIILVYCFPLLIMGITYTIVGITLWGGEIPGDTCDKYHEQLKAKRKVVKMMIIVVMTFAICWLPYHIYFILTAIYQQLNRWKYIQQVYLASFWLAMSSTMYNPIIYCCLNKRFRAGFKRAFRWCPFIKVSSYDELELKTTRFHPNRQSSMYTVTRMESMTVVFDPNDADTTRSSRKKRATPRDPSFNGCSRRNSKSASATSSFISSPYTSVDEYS
experimental readout: Ki (nM)
Give bare numbers, in nM.

Asked: Given the entry `COc1cc(C(=O)N2CC[C@](CCN3CCC(C(N)=O)(c4ccccc4)CC3)(c3ccc(Cl)c(Cl)c3)C2)cc(OC)c1OC` , what Ki was observed with Neuromedin-K receptor (Homo sapiens)?
Given back: 200

###

Experiment: Tmax by oral administration at a dose of 10 uM/kg in dog was determined
Format: ADME, organism-based, Canis lupus familiaris
Conditions: in vivo
experimental readout: Tmax (h)
Answers are plain numbers, in h.

Asked: Look up Tmax for this compound: CN(C[C@@H](CCN1CCC(c2ccccc2[S@+](C)[O-])CC1)c1ccc(Cl)c(Cl)c1)C(=O)c1cc(C#N)cc2ccccc12 (stereo in doubt)
Given back: 2

###

Target: Substance-K receptor (Oryctolagus cuniculus)
Experiment: Binding constant towards Tachykinin receptor 2 using BANK as agonist on rabbit pulmonary artery tissues.
experimental readout: pKB
Numbers only.

Please report pKB for every entry that follows.
1. CN(C[C@@H](CCN1CCC(c2ccccc2[S+](C)[O-])CC1)c1ccc(Cl)c(Cl)c1)C(=O)c1ccc(C#N)c2ccccc12 (some centres undefined)
2. CN(C[C@@H](CCN1CCC(c2ccccc2[S+](C)[O-])CC1)c1ccc(Cl)c(Cl)c1)C(=O)c1cc(S(C)(=O)=O)cc2ccccc12 (some centres undefined)

Given back:
1. 7.34
2. 7.35

Please report pKB for every entry that follows.
1. CNC(=O)C1(N2CCCNC2=O)CCN(CC[C@H](CN(C)C(=O)c2cccc3ccccc23)c2ccc(Cl)c(Cl)c2)CC1
2. CC(=O)c1cc(C(=O)N(C)C[C@@H](CCN2CCC(c3ccccc3[S+](C)[O-])CC2)c2ccc(Cl)c(Cl)c2)c2ccccc2c1 (some centres undefined)
3. CN(C[C@@H](CCN1CCC(c2ccccc2[S+](C)[O-])CC1)c1ccc(Cl)c(Cl)c1)C(=O)c1cccc2ccccc12 (some centres undefined)
4. COc1cc(C(=O)N(C)C[C@@H](CCN2CCC(c3ccccc3[S+](C)[O-])CC2)c2ccc(Cl)c(Cl)c2)c2ccccc2c1 (some centres undefined)
5. CN(C[C@@H](CCN1CCC(c2ccccc2[S+](C)[O-])CC1)c1ccc(Cl)c(Cl)c1)C(=O)c1cc(C(F)(F)F)cc2ccccc12 (some centres undefined)
6. CCN1C(=O)c2ccccc2[C@H]1[C@@H](CCN1CCC(c2ccccc2[S@+](C)[O-])CC1)c1ccc(Cl)c(Cl)c1
7. CN(C[C@@H](CCN1CCC(c2ccccc2[S@+](C)[O-])CC1)c1ccc(Cl)c(Cl)c1)C(=O)c1cc(C#N)cc2ccccc12 (stereo in doubt)
8. CN(C[C@@H](CCN1CCC(c2ccccc2[S+](C)[O-])CC1)c1ccc(Cl)c(Cl)c1)C(=O)c1cc(Cl)cc2ccccc12 (some centres undefined)

Given back:
1. 8.41
2. 7.17
3. 8.18
4. 7.7
5. 6.45
6. 8.8
7. 8.26
8. 7.1

Please report pKB for every entry that follows.
1. CN(C[C@@H](CCN1CCC(c2ccccc2[S+](C)[O-])CC1)c1ccc(Cl)c(Cl)c1)C(=O)c1cc(F)cc2ccccc12 (some centres undefined)
2. CN(C[C@@H](CCN1CCC(N2CCCNC2=O)CC1)c1ccc(Cl)c(Cl)c1)C(=O)c1cccc2ccccc12
3. CN(C[C@@H](CCN1CCC(c2ccccc2[S+](C)[O-])CC1)c1ccc(Cl)c(Cl)c1)C(=O)c1cccc2cc(C#N)ccc12 (some centres undefined)
4. CN(C[C@@H](CCN1CCC(c2ccccc2[S+](C)[O-])CC1)c1ccc(Cl)c(Cl)c1)C(=O)c1cccc2ccc(C#N)cc12 (some centres undefined)

Given back:
1: 8.15; 2: 7.92; 3: 7.62; 4: 8.51

###

For each record, write down the corresponding pKB.
Target: Substance-K receptor (Oryctolagus cuniculus)
Sequence (whole entry): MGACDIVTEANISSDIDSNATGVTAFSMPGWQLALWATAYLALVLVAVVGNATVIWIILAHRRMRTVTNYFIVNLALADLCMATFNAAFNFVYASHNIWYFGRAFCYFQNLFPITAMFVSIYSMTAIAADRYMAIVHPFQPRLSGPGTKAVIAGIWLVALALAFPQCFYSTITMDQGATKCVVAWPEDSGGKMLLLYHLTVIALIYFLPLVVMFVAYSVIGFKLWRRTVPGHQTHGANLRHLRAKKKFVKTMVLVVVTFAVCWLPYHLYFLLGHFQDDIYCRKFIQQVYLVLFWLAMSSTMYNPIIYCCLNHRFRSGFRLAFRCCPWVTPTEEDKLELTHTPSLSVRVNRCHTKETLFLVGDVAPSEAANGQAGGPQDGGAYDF
Experiment: Binding constant towards Tachykinin receptor 2 using BANK as agonist on rabbit pulmonary artery tissues.
Numbers only.

The examples below pair each entry with its known result.
CNC(=O)c1ccccc1C1CCN(CC[C@H](CN(C)C(=O)c2cccc3ccccc23)c2ccc(Cl)c(Cl)c2)CC1; 8.21
CN(C[C@@H](CCN1CCC(c2ccccc2[S+](C)[O-])CC1)c1ccc(Cl)c(Cl)c1)C(=O)c1cc(C(=O)O)cc2ccccc12 (some centres undefined); 6.86
CC(=O)NC1(c2ccccc2)CCN(CC[C@H](CN(C)C(=O)c2cccc3ccccc23)c2ccc(Cl)c(Cl)c2)CC1; 8.18

Now look at this entry.
Asked: Look up pKB for this molecule: `CN(C)C(=O)C1(N2CCCCC2=O)CCN(CC[C@H](CN(C)C(=O)c2cccc3ccccc23)c2ccc(Cl)c(Cl)c2)CC1`
Given back: 8.23

###

Target: Substance-K receptor (Oryctolagus cuniculus)
Assay: Binding constant towards Tachykinin receptor 2 using BANK as agonist on rabbit pulmonary artery tissues.
Binary classification by pKB, with 8 as an inclusive lower bound for MET; all other cases are NOT MET.

CN(C[C@@H](CCN1CCC(c2ccc([S+](C)[O-])cc2)CC1)c1ccc(Cl)c(Cl)c1)C(=O)c1cccc2ccccc12 (some centres undefined); NOT MET

Asked: Form field: pKB at least 8? Entry: `CNC(=O)C1(N2CCCCC2=O)CCN(CC[C@H](CN(C)C(=O)c2cccc3ccccc23)c2ccc(Cl)c(Cl)c2)CC1`
Given back: MET

Asked: Form field: pKB at least 8? Entry: CN(C[C@@H](CCN1CCC(c2ccccc2[S+](C)[O-])CC1)c1ccc(Cl)c(Cl)c1)C(=O)c1cc([N+](=O)[O-])cc2ccccc12 (some centres undefined)
Given back: MET

Asked: Form field: pKB at least 8? Entry: CN(C[C@@H](CCN1CCC(O)(c2ccc([S+](C)[O-])cc2)CC1)c1ccc(Cl)c(Cl)c1)C(=O)c1cccc2ccccc12 (some centres undefined)
Given back: NOT MET

Asked: Form field: pKB at least 8? Entry: CN(C[C@@H](CCN1CCC(c2ccccc2[S+](C)[O-])CC1)c1ccc(Cl)c(Cl)c1)C(=O)c1cc(Br)cc2ccccc12 (some centres undefined)
Given back: NOT MET

Asked: Form field: pKB at least 8? Entry: `CC(=O)NC1(c2ccccc2)CCN(CC[C@H](CN(C)C(=O)c2ccccc2)c2ccc(Cl)c(Cl)c2)CC1`
Given back: MET

Asked: Form field: pKB at least 8? Entry: CN(C)C(=O)c1cc(C(=O)N(C)C[C@@H](CCN2CCC(c3ccccc3[S+](C)[O-])CC2)c2ccc(Cl)c(Cl)c2)c2ccccc2c1 (some centres undefined)
Given back: NOT MET

Asked: Form field: pKB at least 8? Entry: `CN(C[C@@H](CCN1CCC(c2ccccc2S(C)(=O)=O)CC1)c1ccc(Cl)c(Cl)c1)C(=O)c1cccc2ccccc12`
Given back: NOT MET

Asked: Form field: pKB at least 8? Entry: `COc1cc(C(=O)N2CC[C@](CCN3CCC(C(N)=O)(c4ccccc4)CC3)(c3ccc(Cl)c(Cl)c3)C2)cc(OC)c1OC`
Given back: NOT MET

Asked: Form field: pKB at least 8? Entry: CN(C[C@@H](CCN1CCC(c2ccccc2[S+](C)[O-])CC1)c1ccc(Cl)c(Cl)c1)C(=O)c1cc(S(N)(=O)=O)cc2ccccc12 (some centres undefined)
Given back: NOT MET

Asked: Form field: pKB at least 8? Entry: CN(C[C@H](CCN1CCC(c2ccccc2[S+](C)[O-])CC1)c1ccc(Cl)c(Cl)c1)C(=O)c1cc(C#N)cc2ccccc12 (some centres undefined)
Given back: NOT MET

Asked: Form field: pKB at least 8? Entry: CN(C[C@@H](CCN1CCC(c2ccccc2[S@+](C)[O-])CC1)c1ccc(Cl)c(Cl)c1)C(=O)c1cc(C#N)cc2ccccc12 (stereo in doubt; 4b)
Given back: MET

Asked: Form field: pKB at least 8? Entry: Cc1cc(C(=O)N(C)C[C@@H](CCN2CCC(c3ccccc3[S+](C)[O-])CC2)c2ccc(Cl)c(Cl)c2)c2ccccc2c1 (some centres undefined)
Given back: NOT MET
